# Experimental Details: method code SF-AS, from DOI: 10.1021/es00012a023, PMID: 22148214
Please go through the items and note down their logP.
Number only, please.

Inquiry: Please supply the value of reported logP for the item CC(C)OC(=O)CS(=O)c1ccc(Cl)cc1[N+](=O)[O-] (stereo not drawn)
Reply text: 2.22

Inquiry: Please supply the value of reported logP for the item CC(C)OC(=O)CSc1ccccc1[N+](=O)[O-]
Reply text: 2.76

Inquiry: Please supply the value of reported logP for the item CC(C)OC(=O)CS(=O)c1ccc([N+](=O)[O-])cc1 (stereo not drawn)
Reply text: 1.64

###

Quantity Kind: logP

Inquiry: Please supply the value of reported logP for the item O=C(NCCO[N+](=O)[O-])c1cccnc1
Reply text: -1.02
